// molecules with reported IC50 on Receptor-type tyrosine-protein phosphatase beta (Homo sapiens, UniProt P23467), multi-publication
Output MET for records whose IC50 is lower than 200 nM, NOT MET for records at or above 200 nM.

For orientation, consider the following solved cases.
I wonder whether "CCc1csc([C@H](Cc2ccc(NS(=O)(=O)O)cc2)NC(=O)Cc2cccc(Cl)c2)n1" has IC50 below 200 nM. Can you tell?
MET

# check: IC50 < 200 nM for "COCc1csc([C@H](Cc2ccc(NS(=O)(=O)O)cc2)NC(=O)OC(C)(C)C)n1"
MET

Does the reported IC50 of the following molecule sit strictly below 200 nM? "CC(C)(C)C(=O)N[C@@H](Cc1ccc(NS(=O)(=O)O)cc1)c1nc(CO)cs1"
NOT MET

# check: IC50 < 200 nM for "COC(=O)Cc1nnc(N[C@@H](Cc2ccc(NS(=O)(=O)O)cc2)c2csc(-c3cccs3)n2)s1"
MET

Is it true that IC50 reported for "Cc1nc(Cc2nnc(N[C@@H](Cc3ccc(NS(=O)(=O)O)cc3)c3csc(-c4cccs4)n3)s2)cs1" is less than 200 nM?
MET

More entries:
Quick check: IC50 of "CCc1csc([C@H](Cc2ccc(NS(=O)(=O)O)cc2)NC(=O)CNC(=O)OC)n1" under 200 nM?
MET

Lab note: confirm whether the reported IC50 for this molecule is below 200 nM, equality not counting. molecule: "O=C(O)c1ccc(N/N=C/c2cccc(Oc3cccc(-c4nnc(Nc5ccc(Cl)c(Cl)c5)s4)c3)c2)cc1"
NOT MET

Lab note: IC50 threshold 200 nM. Does this molecule come in strictly under it? "CC(C)(C)OC(=O)N[C@@H](Cc1ccc(NS(=O)(=O)O)cc1)c1nc(C(C)(C)C)cs1"
MET

* * *

Published IC50 for Receptor-type tyrosine-protein phosphatase beta (Homo sapiens), assembled from different documents, is shown next.
Numeric answer only, unit nM assumed.

Under Receptor-type tyrosine-protein phosphatase beta (Homo sapiens): IC50 value of "CCc1csc([C@H](Cc2ccc(NS(=O)(=O)O)cc2)NC(=O)CNC(=O)OC(C)(C)C)n1" ?
28

# get_value(readout= IC50, system= Receptor-type tyrosine-protein phosphatase beta (Homo sapiens)) for "O=S(=O)(O)Nc1ccc(C[C@H](Nc2nnc(-c3ccccc3)s2)c2csc(-c3ccccc3)n2)cc1"
46

Please state recorded IC50 (tested on Receptor-type tyrosine-protein phosphatase beta (Homo sapiens)) of "CCCc1csc([C@H](Cc2ccc(NS(=O)(=O)O)cc2)NC(=O)OC(C)(C)C)n1"
40

New cases:
Kindly state the measured IC50 obtained for "CCc1csc([C@H](Cc2ccc(NS(=O)(=O)O)cc2)NC(=O)Cc2ccccc2F)n1" with Receptor-type tyrosine-protein phosphatase beta (Homo sapiens).
12

Query the reported IC50 for Receptor-type tyrosine-protein phosphatase beta (Homo sapiens); item: "CCOC(=O)Cc1csc([C@H](Cc2ccc(NS(=O)(=O)O)cc2)NC(=O)OC(C)(C)C)n1"
167

Given the entry "CCc1csc([C@H](Cc2ccc(NS(=O)(=O)O)cc2)NC(=O)Cc2ccccc2)n1" , what IC50 was observed with Receptor-type tyrosine-protein phosphatase beta (Homo sapiens)?
50

Requested read-out IC50, target or system Receptor-type tyrosine-protein phosphatase beta (Homo sapiens), entry "CCc1csc([C@H](Cc2ccc(NS(=O)(=O)O)cc2)NC(=O)[C@H](CC(C)C)NC(=O)OC)n1"
0.3

Form: Entry = "Cc1nnc(N[C@@H](Cc2ccc(NS(=O)(=O)O)cc2)c2csc(-c3ccccc3)n2)s1" | System = Receptor-type tyrosine-protein phosphatase beta (Homo sapiens) | IC50 = ____
3

Requested read-out IC50, target or system Receptor-type tyrosine-protein phosphatase beta (Homo sapiens), entry "O=C(O)c1ccc(Cn2nc(-c3cccc(Oc4cccc(C(F)(F)F)c4)c3)sc2=Nc2ccc(Cl)c(Cl)c2)cc1"
5000

Write down the reported IC50 of "COC(=O)N[C@@H](Cc1ccccc1)C(=O)N[C@@H](Cc1ccc(NS(=O)(=O)O)cc1)c1nc(C(C)(C)C)cs1" , test system: Receptor-type tyrosine-protein phosphatase beta (Homo sapiens).
0.2
